Form field: protein stability index (one value per entry).
# methodDescription: protein stability index of a GFP-peptide fusion (yeast GPS) (PSI 1-4); higher = more stable; sorted into four equal gates, so the index is relative within each strain
# conditionSet: san1∆

[
  {
    "biopolymerSequence": "DKEKEENNDDALDLDLD [MED4]",
    "protein stability index": 2.95
  },
  {
    "biopolymerSequence": "SGGSVNLYHVTEDGWIY [PRE2]",
    "protein stability index": 3
  },
  {
    "biopolymerSequence": "TKVLNMKPSEILSLIEE [SMC2]",
    "protein stability index": 3
  },
  {
    "biopolymerSequence": "LKQEIDRGLSIKLNGST [SNU114]",
    "protein stability index": 3
  },
  {
    "biopolymerSequence": "DINTVNTNLMNGVNVQI [GRR1]",
    "protein stability index": 2.98
  },
  {
    "biopolymerSequence": "LCVLDYDNIDIQRGRIL [RPB7]",
    "protein stability index": 3.08
  },
  {
    "biopolymerSequence": "ELLKSSLQKAGSKMEAK [AAR2]",
    "protein stability index": 3.05
  },
  {
    "biopolymerSequence": "GLTSRLQRQQRKSKLNL [POP4]",
    "protein stability index": 3.09
  },
  {
    "biopolymerSequence": "ERKQIHEFKLIVGKKIQ [GRR1]",
    "protein stability index": 3.03
  },
  {
    "biopolymerSequence": "AALFRLHKFLTKWGLIN [SWI3]",
    "protein stability index": 2.94
  }
]
